Test Context: in n-pentanol, 293.2 K
Measurement Name: solubility (mole fraction)
Number only, no unit.

INSERT INTO results (smiles_string, measurement_name, reported) VALUES
  ('C[C@@H]1CC[C@@]2(OC1)O[C@H]1C[C@H]3[C@@H]4CC=C5C[C@@H](O)CC[C@]5(C)[C@H]4CC[C@]3(C)[C@H]1[C@@H]2C', 'solubility (mole fraction)', 0.00462);

Short answer for "C=C(C)[C@@H]1CC[C@]2(CO)CC[C@]3(C)[C@H](CC[C@@H]4[C@@]5(C)CC[C@H](O)C(C)(C)[C@@H]5CC[C@]43C)[C@@H]12" : solubility (mole fraction) was 0.000894

The origin of these recorded values is BigSolDB 2.1.
